What solubility was measured for each of the following?
ASSAY DETAILS: Solubility of the peptides in water
Assay type: physicochemical
EXPERIMENTAL CONDITIONS: determined in water
Non-standard residues stand in square brackets, D forms with d. Residues, ends and D or L forms follow the SMILES beside them. Bip = N[C@@H](Cc1ccc(-c2ccccc2)cc1)C(=O)O; dBip = N[C@H](Cc1ccc(-c2ccccc2)cc1)C(=O)O
Numbers only, in mg/mL.

>>> recorded_value("C[C@H](O)[C@@H](NC(=O)[C@H](N)Cc1ccc(-c2ccccc2)cc1)C(=O)N[C@H](CO)C(=O)N[C@H](CCC(=O)O)C(=O)N[C@H](Cc1ccc(O)cc1)C(=O)N[C@H](CCC(=O)O)C(=O)N[C@H](CO)C(=O)N[C@@H](CCCCN)C(=O)O [Peptide 213.26, (bip)tseyesK] (H-[dBip][dT][dS][dE][dY][dE][dS]K-OH; N-terminus and C-terminus assumed)")
8
>>> recorded_value("CC(C)C[C@@H](NC(=O)[C@@H](C)NC(=O)[C@@H](CCC(=O)O)NC(=O)[C@@H](Cc1ccc(O)cc1)NC(=O)[C@@H](CCC(=O)O)NC(=O)[C@@H](CO)NC(=O)[C@H](NC(=O)[C@H](N)Cc1ccc(-c2ccccc2)cc1)[C@H](C)O)C(=O)NCC(=O)N[C@@H](CCCCN)C(=O)N[C@@H](CCCCN)C(=O)O [Peptide 213.30, (bip)tseyealGKK] (H-[dBip][dT][dS][dE][dY][dE][dA][dL]GKK-OH; N-terminus and C-terminus assumed)")
16
>>> recorded_value("CC(C)C[C@@H](NC(=O)[C@@H](CO)NC(=O)[C@@H](CCC(=O)O)NC(=O)[C@@H](Cc1ccc(O)cc1)NC(=O)[C@@H](CCC(=O)O)NC(=O)[C@@H](CO)NC(=O)[C@H](NC(=O)[C@H](N)Cc1ccc(-c2ccccc2)cc1)[C@H](C)O)C(=O)N[C@@H](CCCCN)C(=O)O [Peptide 213.23, (bip)tseyeslK] (H-[dBip][dT][dS][dE][dY][dE][dS][dL]K-OH; N-terminus and C-terminus assumed)")
13

Next, consider the following molecule.
# input // lookup solubility for CC(C)C[C@H](NC(=O)[C@@H](C)NC(=O)[C@@H](CCC(=O)O)NC(=O)[C@@H](Cc1ccc(O)cc1)NC(=O)[C@@H](CCC(=O)O)NC(=O)[C@@H](CO)NC(=O)[C@H](NC(=O)[C@@H](N)Cc1ccc(-c2ccccc2)cc1)[C@H](C)O)C(=O)N[C@@H](CCCCN)C(=O)N[C@@H](CCCCN)C(=O)O [Peptide 213.29, (Bip)tseyeaLKK] (H-[Bip][dT][dS][dE][dY][dE][dA]LKK-OH; N-terminus and C-terminus assumed)
# output 15.6
